# median [+ligand]/median [w/o ligand]*100 per entry
measured-on: human FLT3 on transfected CHO cells (human) (UniProt P36888)
method-description: FACS, scFv on CHO-human FLT3 cells pre-incubated with FLT3 ligand (competitor)
assay-endpoint: median [+ligand]/median [w/o ligand]*100

binder="FL-6 (scFv) scFv: QVTLKESGPTLVKPTETLTLTCTLSGFSLNNARMAVSWIRQPPGKTLEWLAHIFSNDEKSYSPSLKSRLTISKDTSKSQVVLTMTNMDPEDTATYYCARIVGYGTGWYGFFDYWGQGILVTVSSGGGGSGGGGSGGGGSDIQMTQSPSSLSASVGDRVTITCRASQGIRNDLGWFQQKPGKAPKRLIYAASVLQSGVPSRFSGSGSGTEFTLTISSLQPEDFATYYCLQHNSYPLTFGGGTKVDIK" meas_value="> 75%"
binder="FL-2 (scFv) scFv: QVTLKESGPVLVKPTETLTLTCTVSGFSLRNARMGVSWIRQPPGKALEWLAHIFSNDEKTYSTSLKSRLTISRDTSKGQVVLTMTKMDPVDTATYYCARIPYYGSGSHNYGMDVWGQGTTVTVSSGGGGSGGGGSGGGGSDIQMTQSPSSLSASVGDRVTITCRASQDIRNDFGWYQQKPGKAPQRLLYAASTLQSGVPSRFSGSGSGTEFTLTISSLQPEDFATYYCLQYNTYPWTFGQGTKVEIK" meas_value="> 75%"
binder="FL-56 (scFv) scFv: QVTLKESGPVLVKPTETLTLTCTVSGFSLRNVRMGVSWIRQPPGKALEWLAHIFSNDEKLYTTSLKSRLTISKDTSKSQVVLTMTNMDPEDTATYYCARIVGYGTGWYGYFDYWGQGTQVTVSSGGGGSGGGGSGGGGSDIQMTQSPSSLSASIGDRVTITCRASQDIRDDLGWYQREPGKAPKRLIYATSIRQSGVPSRFSGSGSGTEFTLTISGLQPEDFATYFCLQHHSFPLTFGGGTKVDIK" meas_value="> 75%"

src = patent US20230272113A1
